The measured values listed here are drawn from ChEMBL document CHEMBL1201862.

test protocol: Luminescence Cell-Based Dose Retest to Confirm Inhibitors of Cancer Stem Cells. [Related pubchem assays (depositor defined):AID2717, AID2721];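 further: cells exposed to compound for roughly 70 hours or longer before luminescence read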
Assay type: functional
assay setup: Homo sapiens
Calls of active or inactive are those of the source. No stated cut-off is given here; in the data, actives have a measured AC50 and inactives only a lower limit.
Mark one answer only. Choices: active, inactive

Please review the following examples before continuing.
mol smiles: Cc1cc(C)c(NC(=O)CSCc2c(C)noc2C)c(C)c1
group label: inactive
--
mol smiles: O=S(=O)(Nc1ccc(-c2csc(-c3ccccc3)n2)cc1)c1ccccc1
group label: active
--
mol smiles: COc1ccc2sc(-c3ccc(N(C)C)cc3)c(C#Cc3cncn3C)c2c1
group label: active
--
mol smiles: Cc1ccc(-c2nnc(Sc3nc4ccccc4o3)c3ccccc23)cc1
group label: active

Q) Which outcome was assigned to "Cc1cc(N=Nc2ccc3ccccc3c2)ccc1O" in this test?
A) active

Q) Moving on to "COc1cc(OC)cc(-c2cc3ccc(OC)cc3cn2)c1"
A) active

Q) Moving on to "COc1ccccc1/C=C1\SC(=S)N(CCC(=O)NCCCn2ccnc2)C1=O"
A) active

Q) Moving on to "Cc1ccc(NC(=O)/C=C/c2ccc3c(c2)OCO3)nc1"
A) active
